# test target: T1, UNK ZnF1-3 (human, UniProt Q9C0B0 31-174)
# T1 sequence: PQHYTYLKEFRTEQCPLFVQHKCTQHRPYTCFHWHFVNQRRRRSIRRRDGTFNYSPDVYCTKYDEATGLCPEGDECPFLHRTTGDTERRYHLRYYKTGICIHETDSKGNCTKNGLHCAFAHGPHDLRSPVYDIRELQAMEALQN
# test: nsRBNS (natural sequence RNA bind-n-seq); RBNS binding buffer (assumed for nsRBNS): 25 mM Tris pH 7.5, 150 mM KCl, 3 mM MgCl2, 0.01% Triton X-100, 500 ug/ml BSA, 20 U/ml SUPERase-In, 4 C; UNK is unkempt and MSI1 is Musashi-1; names of the RNAs are library labels; protein concentration not given here; high values mean tight binding
Over roughly 24,000 sequences, “enrichment r” has its median near 0.99; the highest 2% begin near 3.7. For the sample, the highest values were picked, then their nearest neighbours and some sequences at random.
endpoint: binding signal (enrichment R)
Unit enrichment R implied. Number only.

Lookup: Which binding signal is reported for this binder? chr7:90019461:90019462:+_ENSMUSG00000057706_ENSMUST00000082237|mus_hu|FALSE|FALSE (ssRNA) RNA: GGGAGUUCUACAGUCCGACGAUCCGUCACAAUUGUGUGAUUAUUAAAAUAAUACAGUGUUCUUUGCCAUAAGGCCAUACUAAAAUAAAAAGAUUUAACCCAGCUACAAAAAAGUUCACUGAACUUAAAUUAAAAUACUUGUAACAACAGAGGAUUGAGCAUCA
Found: 3.55

Lookup: Which binding signal is reported for this binder? 65373527_65373647_4270_3pUTR_ENSMUSG00000024589_ENSMUST00000163516|mouse|control|control (ssRNA) RNA: GGGAGUUCUACAGUCCGACGAUCAGGGAGGCAGGAGCAAUCGCCACGAGUGAUAUUCGUGAAAAAAAAAAAAAAAAUGGAAACAAAACCAGAUGUGACCUCCAUAAAGUGCCUUCAGAAGGGACGCAGAUACAGCAAAGGAAGCAACAGAGGAUUGAGCAUCA
Found: 6.96

Lookup: Which binding signal is reported for this binder? chr16:94690093:94690094:+_ENSMUSG00000040785_ENSMUST00000117648|mus_hu|mus_mus_mus_hu_True|68_98 (ssRNA) RNA: GGGAGUUCUACAGUCCGACGAUCGGGCUGGGAUGACAGCAGACAGCCCUCGAUUCCAGGGGGAAAAAAAAAUAGCCGAUACUAAUUAAAAAGUGUUAAUGAUUUUUGAAAAUCAGAUUACAUCUAUAAAAGAUGAAAAGCAAACAACAGAGGAUUGAGCAUCA
Found: 3.34

Lookup: Which binding signal is reported for this binder? chr14:49642940:49642941:-_ENSMUSG00000061244_ENSMUST00000162175|mus_mus|motif|central (ssRNA) RNA: GGGAGUUCUACAGUCCGACGAUCUAAAGCAUAAUCAAUAUGCUCAAUACAUAAAAAUUCCACAAGAAUGGUAAAAAUUCGGAAGGCAUUCCUUGGUAAAUCAGAAGGAUCAGAAAGCCUAUGACAUCUUUCAAAGGCUUGUUUCAACAGAGGAUUGAGCAUCA
Found: 0.426

***
Lookup: Which binding signal is reported for this binder? chr2:131829505:131829506:-_ENSG00000152102_ENST00000409185|hu_mus|FALSE|FALSE (ssRNA) RNA: GGGAGUUCUACAGUCCGACGAUCCGCUCCAGGGUACAUGUUAGGAGAAUAGGCAGGUGCUGCUGCAUAGCCCACAGGAAAACCAGCUGGAUAUCCAAUUCCUUUGGCAUUUGCAUAGGGAACGCCAGAAGACCCAGGGCUAUACAACAGAGGAUUGAGCAUCA
Found: 0.945

Lookup: Which binding signal is reported for this binder? 141912308_141912428_1497_3pUTR_ENSMUSG00000028273_ENSMUST00000029941|mouse|control|control (ssRNA) RNA: GGGAGUUCUACAGUCCGACGAUCUUGGCACCGGCCACAUUCAGGAGCAAAGAACUUCUCAUAGCAUAGCUCACAGUACAGUGCUCCCUUCUCCUCUACAAAGCCUAUGUAGGCCAUUGUGUUUUUGCAAUGAGCACAGUUAAACAACAGAGGAUUGAGCAUCA
Found: 0.923

Lookup: Which binding signal is reported for this binder? chr6:41757443:41757444:+_ENSG00000214736_ENST00000398881|hu_mus|hu_hu_hu_mus_False|48_98 (ssRNA) RNA: GGGAGUUCUACAGUCCGACGAUCGAACCGUGCAGAGACCAGAGAAUAGCCGACACUGGGGGAUGGGGGGGCAGUGGGGGGGGGUUCAGGGAAGGGGAGGGAGUCAACUUCAGCUGCCACUCAGGUAGGAUCUUGUGGUCACAGCAACAGAGGAUUGAGCAUCA
Found: 5.8
